Test system: Aspergillus niger
Test: Fungicidal activity against Aspergillus niger assessed as inhibition at 100 ppm measured after 96 hr by agar growth technique
Assay type: functional
Measured Metric: inhibition at 100 ppm (%)
Note: unit % is implicit; provide only the numeric part.

These recorded examples may help you get a feel for the data.
{"Molecule": "Cc1cccc(OCC(=O)N2N=C(Nc3ccccc3)SC2c2ccccc2)c1 (stereo not given)", "Unit Info": "%", "inhibition at 100 ppm": 54}
{"Molecule": "CC1(C)SC(Nc2ccc(Cl)cc2)=NN1C(=O)COc1ccccc1Cl", "Unit Info": "%", "inhibition at 100 ppm": 50}
{"Molecule": "O=C(COc1ccccc1Cl)N1N=C(Nc2ccccc2)SC1c1ccccc1 (stereo not given)", "Unit Info": "%", "inhibition at 100 ppm": 82}
{"Molecule": "COc1ccc(NC2=NN(C(=O)COc3ccccc3Cl)C(c3ccccc3)S2)cc1 (stereo not given)", "Unit Info": "%", "inhibition at 100 ppm": 59}

Now consider a different molecule.
Lab note: Cc1ccc(NC2=NN(C(=O)COc3ccccc3Cl)C(C)(C)S2)cc1 gave inhibition at 100 ppm of 52

###

Test system: Bipolaris oryzae
Assay: Fungicidal activity against Bipolaris oryzae assessed as inhibition at 100 ppm measured after 96 hr by agar growth technique
Type: functional
Measured Metric: inhibition at 100 ppm (%)
Note: unit % is implicit; provide only the numeric part.

These recorded examples may help you get a feel for the data.
{"Molecule": "O=C(COc1ccccc1Cl)N1N=C(Nc2ccc(Cl)cc2)SC1c1ccccc1 (stereo unspecified)", "inhibition at 100 ppm / %": 80}
{"Molecule": "Cc1cccc(OCC(=O)N2N=C(Nc3ccccc3)SC2c2ccccc2)c1 (stereo unspecified)", "inhibition at 100 ppm / %": 49}
{"Molecule": "CC1(C)SC(Nc2ccccc2)=NN1C(=O)COc1ccccc1Cl", "inhibition at 100 ppm / %": 42}
{"Molecule": "CC1(C)SC(Nc2ccccc2)=NN1C(=O)COc1ccc(Cl)cc1", "inhibition at 100 ppm / %": 67}
{"Molecule": "Cc1ccc(NC2=NN(C(=O)COc3ccccc3Cl)C(C)(C)S2)cc1", "inhibition at 100 ppm / %": 44}

Now consider a different molecule.
Lab note: Cc1cccc(OCC(=O)N2N=C(Nc3ccc(Cl)cc3)SC2c2ccccc2)c1 (stereo unspecified) gave inhibition at 100 ppm of 48

###

Test system: Aspergillus niger
Experiment: Fungicidal activity against Aspergillus niger assessed as inhibition at 100 ppm measured after 96 hr by agar growth technique
Assay type: functional
Measured Metric: inhibition at 100 ppm (%)
Note: unit % is implicit; provide only the numeric part.

{"Compound": "Cc1ccc(NC2=NN(C(=O)COc3ccccc3Cl)C(c3ccccc3)S2)cc1 (stereo unspecified)", "Recorded Measurement": 52}

Lab note: COc1ccc(NC2=NN(C(=O)COc3ccccc3Cl)C(C)(C)S2)cc1 gave inhibition at 100 ppm of 56

Lab note: Cc1cccc(OCC(=O)N2N=C(Nc3ccc(Cl)cc3)SC2c2ccccc2)c1 (stereo unspecified) gave inhibition at 100 ppm of 49

###

Test system: Bipolaris oryzae
Assay: Fungicidal activity against Bipolaris oryzae assessed as inhibition at 100 ppm measured after 96 hr by agar growth technique
Type: functional
Use fulfilled when the recorded inhibition at 100 ppm is no lower than 60%; use not fulfilled when it is lower.

# example entries with known answers
{"Molecule": "O=C(COc1ccccc1Cl)N1N=C(Nc2ccccc2)SC1c1ccccc1 (stereo not given)", "Assigned Category": "fulfilled"}
{"Molecule": "Cc1cccc(OCC(=O)N2N=C(Nc3ccc(Cl)cc3)SC2(C)C)c1", "Assigned Category": "not fulfilled"}
{"Molecule": "Cc1ccc(NC2=NN(C(=O)COc3cccc(C)c3)C(C)(C)S2)cc1", "Assigned Category": "fulfilled"}
{"Molecule": "COc1ccc(NC2=NN(C(=O)COc3ccccc3Cl)C(c3ccccc3)S2)cc1 (stereo not given)", "Assigned Category": "not fulfilled"}
{"Molecule": "Cc1ccc(NC2=NN(C(=O)COc3ccccc3Cl)C(c3ccccc3)S2)cc1 (stereo not given)", "Assigned Category": "not fulfilled"}
{"Molecule": "COc1ccc(NC2=NN(C(=O)COc3ccccc3Cl)C(C)(C)S2)cc1", "Assigned Category": "not fulfilled"}
{"Molecule": "COc1ccc(NC2=NN(C(=O)COc3cccc(C)c3)C(c3ccccc3)S2)cc1 (stereo not given)", "Assigned Category": "fulfilled"}
{"Molecule": "COc1ccc(NC2=NN(C(=O)COc3cccc(C)c3)C(C)(C)S2)cc1", "Assigned Category": "not fulfilled"}

Field: next molecule
INPUT: Does inhibition at 100 ppm meet or surpass 60% for CC1(C)SC(Nc2ccc(Cl)cc2)=NN1C(=O)COc1ccccc1Cl ?
OUTPUT: not fulfilled

###

Tested on: Bipolaris oryzae
Experiment: Fungicidal activity against Bipolaris oryzae assessed as inhibition at 10 ppm measured after 96 hr by agar growth technique
Format: functional
Measured Metric: inhibition at 10 ppm (%)
Note: unit % is implicit; provide only the numeric part.

These recorded examples may help you get a feel for the data.
{"Compound": "Cc1cccc(OCC(=O)N2N=C(Nc3ccc(Cl)cc3)SC2c2ccccc2)c1 (stereo unspecified)", "inhibition at 10 ppm, %": 38}
{"Compound": "Cc1cccc(OCC(=O)N2N=C(Nc3ccc(Cl)cc3)SC2(C)C)c1", "inhibition at 10 ppm, %": 38}
{"Compound": "Cc1ccc(NC2=NN(C(=O)COc3cccc(C)c3)C(C)(C)S2)cc1", "inhibition at 10 ppm, %": 48}
{"Compound": "CC1(C)SC(Nc2ccccc2)=NN1C(=O)COc1ccccc1Cl", "inhibition at 10 ppm, %": 31}
{"Compound": "O=C(COc1ccccc1Cl)N1N=C(Nc2ccccc2)SC1c1ccccc1 (stereo unspecified)", "inhibition at 10 ppm, %": 75}

Now consider a different compound.
Lab note: Cc1ccc(NC2=NN(C(=O)COc3ccccc3Cl)C(C)(C)S2)cc1 gave inhibition at 10 ppm of 32

###

Test system: Sorghum halepense
Assay: Herbicidal activity against Sorghum halepense (Johnson grass) assessed as killing at 6 kg/ha by post-emergent activity assay
Assay type: functional
Measured Metric: Activity

{"Molecule": "O=C(COc1ccccc1Cl)N1N=C(Nc2ccc(Cl)cc2)SC1c1ccccc1 (stereo unspecified)", "Target Or System": "Sorghum halepense", "Activity": "40%"}
{"Molecule": "O=C(COc1ccccc1Cl)N1N=C(Nc2ccccc2)SC1c1ccccc1 (stereo unspecified)", "Target Or System": "Sorghum halepense", "Activity": "60%"}
{"Molecule": "Cc1cccc(OCC(=O)N2N=C(Nc3ccc(Cl)cc3)SC2(C)C)c1", "Target Or System": "Sorghum halepense", "Activity": "60%"}
{"Molecule": "CC1(C)SC(Nc2ccccc2)=NN1C(=O)COc1ccc(Cl)cc1", "Target Or System": "Sorghum halepense", "Activity": "60%"}
{"Molecule": "Cc1ccc(NC2=NN(C(=O)COc3ccccc3Cl)C(C)(C)S2)cc1", "Target Or System": "Sorghum halepense", "Activity": "50%"}

Lab note: Cc1ccc(NC2=NN(C(=O)COc3cccc(C)c3)C(C)(C)S2)cc1 gave Activity of 50%

Lab note: CC1(C)SC(Nc2ccc(Cl)cc2)=NN1C(=O)COc1ccccc1Cl gave Activity of 30%

Lab note: COc1ccc(NC2=NN(C(=O)COc3ccccc3Cl)C(c3ccccc3)S2)cc1 (stereo unspecified) gave Activity of 90%

Lab note: Cc1ccc(NC2=NN(C(=O)COc3ccccc3Cl)C(c3ccccc3)S2)cc1 (stereo unspecified) gave Activity of 60%

###

Tested on: Bipolaris oryzae
Test: Fungicidal activity against Bipolaris oryzae assessed as inhibition at 10 ppm measured after 96 hr by agar growth technique
Type: functional
inhibition at 10 ppm values for the molecules below.
Answer with the number, then the unit.

These recorded examples may help you get a feel for the data.
{"Molecule": "COc1ccc(NC2=NN(C(=O)COc3ccccc3Cl)C(C)(C)S2)cc1", "inhibition at 10 ppm": "31%"}
{"Molecule": "CC1(C)SC(Nc2ccccc2)=NN1C(=O)COc1ccc(Cl)cc1", "inhibition at 10 ppm": "59%"}

Lab note: CC1(C)SC(Nc2ccc(Cl)cc2)=NN1C(=O)COc1ccccc1Cl gave inhibition at 10 ppm of 39%

Lab note: O=C(COc1ccccc1Cl)N1N=C(Nc2ccc(Cl)cc2)SC1c1ccccc1 (stereo not given) gave inhibition at 10 ppm of 78%

Lab note: Cc1cccc(OCC(=O)N2N=C(Nc3ccccc3)SC2c2ccccc2)c1 (stereo not given) gave inhibition at 10 ppm of 39%

Lab note: COc1ccc(NC2=NN(C(=O)COc3ccccc3Cl)C(c3ccccc3)S2)cc1 (stereo not given) gave inhibition at 10 ppm of 44%

Lab note: COc1ccc(NC2=NN(C(=O)COc3cccc(C)c3)C(c3ccccc3)S2)cc1 (stereo not given) gave inhibition at 10 ppm of 50%

Lab note: Cc1ccc(NC2=NN(C(=O)COc3cccc(C)c3)C(c3ccccc3)S2)cc1 (stereo not given) gave inhibition at 10 ppm of 46%

Lab note: Cc1ccc(NC2=NN(C(=O)COc3ccccc3Cl)C(c3ccccc3)S2)cc1 (stereo not given) gave inhibition at 10 ppm of 39%

Lab note: COc1ccc(NC2=NN(C(=O)COc3cccc(C)c3)C(C)(C)S2)cc1 gave inhibition at 10 ppm of 36%
